Reference source for all entries: PubChem BioAssay (NCI)

Tested on: SF-295 CNS
Assay: NCI-60 one-dose screen, 48 h (100 = growth as untreated, 0 = no growth, -100 = all killed)
Details: 10 µM unless noted
About 83,000 compounds went through this panel and 20% of them were active in at least one assay; those are over-represented in the sample as a whole.
Listing of recorded growth by entry.

COMPOUND	growth (%)
CCOC(=O)N1CCN(CCCCl)CC1	98.8
O=C(c1ccccc1)N1N=C(c2ccc(-n3ccc(C(F)(F)F)n3)cc2)CC1c1ccc[nH]1 (centres undefined)	97.1
CSc1nnc2c(=O)n(C)c(=O)n(C)c2n1	130
C(=C\c1n(Cc2ccc3ccccc3c2)c(-c2ccccc2)c(-c2ccccc2)[n+]1Cc1ccc2ccccc2c1)/c1ccccc1	-95.9
CN1CCN(c2ccc(NC3=C(Cl)C(=O)c4ncccc4C3=O)cc2C#N)CC1	115
CC1(c2ccccc2)NC(=O)N(CC(=O)Nc2cccc(I)c2)C1=O (centres undefined)	94
COC(=O)Nc1nc2ccc(C(=O)c3cccc(I)c3)cc2[nH]1	12
c1ccc(CCSc2ncnc3nc[nH]c23)cc1	75.6
COc1ccc(NC(=O)c2sc3nc(C)c(C(O)c4ccc(OC)cc4)cc3c2N)cc1 (centres undefined)	-1.07

* * *

System: MDA-MB-231 breast
Assay: NCI-60 one-dose screen, 48 h (100 = growth as untreated, 0 = no growth, -100 = all killed)
Settings: 10 µM unless noted
Compounds without any hit were thinned out: in the full panel of roughly 83,000, 20% have a hit.
Values of growth strictly less than 70% map to t, and values of at least 70% map to f.

ENTRY_SMILES	CLASSIFICATION
Nc1cc(N)c2cccnc2c1O	f
CC[C@@]12C=CCN3CC[C@]4(c5cc(NC(=O)COc6cc(OCC(=O)Nc7cc8c(cc7OC)N(C)[C@H]7[C@@](O)(C(=O)OC)[C@H](OC(C)=O)[C@]9(CC)C=CCN%10CC[C@]87[C@@H]%109)cc7oc(-c8ccccc8)cc(=O)c67)c(OC)cc5N(C)[C@@H]4[C@](O)(C(=O)OC)[C@H]1OC(C)=O)[C@H]32	t
COc1cc(NCCCN(CC(C)C)C2CCCC2)c2ncccc2c1	f
NC(=O)c1ccc[n+](CC(=O)N2CCN(c3cc4c(cc3F)c(=O)c(C(=O)O)cn4C3CC3)CC2)c1	f
BrC(Br)(Br)c1cnc2ccccc2n1	t
COc1ccc(-c2ncc(-c3ccccc3)[nH]2)cc1OC	f
ClCC1(Cn2cnc3c(Cl)nc(Cl)nc32)COC1	f
Cc1c2c(cc[n+]1Cc1ccc(F)cc1)c1ccc(OCc3cccc(F)c3)cc1n2Cc1cccc(F)c1	t

* * *

Listing of recorded growth by entry.
System: OVCAR-4 ovarian
Experiment: NCI-60 one-dose screen, 48 h (100 = growth as untreated, 0 = no growth, -100 = all killed)
Settings: 10 µM unless noted
The panel holds about 83,000 compounds, 20% with a hit somewhere; the sample as a whole holds those more often.
RECORDED_ENDPOINT: growth (%)

COMPOUND	UNIT_INFO	MEASURED
CN(C)C(=O)c1cc2cnc(Nc3ccc(-c4csc5c(=O)cc(N6CCOCC6)oc45)cc3)nc2n1C1CCCC1	%	12.4
CN1CCN(C(=O)[C@]2(C)CC[C@]3(C)CC[C@]4(C)C(=CC(=O)[C@@H]5[C@@]6(C)CCC(=O)NC(C)(C)[C@@H]6CC[C@]54C)[C@@H]3C2)CC1	%	92.1
Clc1ccc(C2CC(c3cccc(Nc4ccncc4)c3)=NN2c2ccccc2)cc1 (stereo not drawn)	%	45.5
